- TARGET_UNDER_TEST: IgD on Namalwa B cells (membrane-bound IgD) (human (endogenous in Namalwa)) (UniProt P01880)
- Sequence (P01880 whole entry, looked up, the tested form may be a part): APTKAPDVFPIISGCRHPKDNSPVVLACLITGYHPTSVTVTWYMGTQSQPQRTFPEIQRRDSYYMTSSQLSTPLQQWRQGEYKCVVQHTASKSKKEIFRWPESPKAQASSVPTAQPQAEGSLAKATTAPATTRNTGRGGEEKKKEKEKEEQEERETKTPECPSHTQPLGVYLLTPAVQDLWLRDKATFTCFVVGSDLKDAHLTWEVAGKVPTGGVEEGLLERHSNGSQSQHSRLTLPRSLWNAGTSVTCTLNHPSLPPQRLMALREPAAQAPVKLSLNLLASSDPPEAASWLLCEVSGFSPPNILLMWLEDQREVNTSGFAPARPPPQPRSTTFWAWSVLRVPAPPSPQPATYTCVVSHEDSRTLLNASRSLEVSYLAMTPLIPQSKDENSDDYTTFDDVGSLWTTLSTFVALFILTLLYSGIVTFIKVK
- ASSAY_DETAILS: flow cytometry on cells; Namalwa cells incubated with 1 µM AF488-labeled Nb:Catcher fusion in PBS pH 7.3, 1% BSA, 0.1% NaN3, 1 h at 4 °C (1 µM, 500 nM and 250 nM for titration); median fluorescence intensity
Reported MFI values are given for each entry in this list.
Enter the number alone.

Exam item: Consider the binder shown here: AF488-labeled monovalent aδNb107 (SpyTagged aδNb107 reacted with AF488-labeled SpyCatcher003) (VHH) VHH: QVQLQESGGGLVQAGASLRLSCTASERTFSPYAMGWFRQAPGREREVIASIFWTGGNTGYADSVKGRFTISRDTAKNTVYLQMSNLKPEDTAVYYCGARTSASAPIYGLWGQGTQVTVSS What is its recorded MFI?
Marked response: 662

Exam item: Recorded MFI of AF488-labeled monovalent aδNb367 (SpyTagged aδNb367 reacted with AF488-labeled SpyCatcher003) (VHH) VHH: QVQLQESGGGLVQPGGSLRLACAASGFSLSTYTMSWVRQSPGKGLEWVSTITSDGGWTSYRDSVKGRFTISRDNAKNTLYLQMNSLNPEDTAVYYCRRGVGVVRGERPGGQGTQVTVSS , please.
Marked response: 1450

Exam item: Reported MFI for AF488-labeled monovalent aδNb571 (SpyTagged aδNb571 reacted with AF488-labeled SpyCatcher003) (VHH) VHH: QVQLQESGGGLVQPGGSLRLSCAASGTPFSASVMAWYRQAPGKERVWVATITSDSMTYYADSVNGRFTISRDNAKSTVYLQMNSLKPEDTAAYICRHAASASWGQGTQVTVSS : what is it?
Marked response: 921

Exam item: Any idea what MFI was measured for AF488-labeled monovalent aδNb408 (SpyTagged aδNb408 reacted with AF488-labeled SpyCatcher003) (VHH) VHH: QVQLQESGGGLVQAGDSLRLSCVASGRSISNDAMAWFRQAPGKEREFVAAITWRYSNTHYSDSVKDRFTISRDNAKNTVYLQMNSLKPEDTADYYCAADRRGTGASSYSRDYDYWGQGTQVTVSS ?
Marked response: 1340

Every entry's value here was drawn from paper PMC12238353.
